Target: T1, HiSiaQM K273C-biotin (Haemophilus influenzae, UniProt P44543, Maleimide-PEG2-biotin on the introduced cysteine K273C)
T1 chain: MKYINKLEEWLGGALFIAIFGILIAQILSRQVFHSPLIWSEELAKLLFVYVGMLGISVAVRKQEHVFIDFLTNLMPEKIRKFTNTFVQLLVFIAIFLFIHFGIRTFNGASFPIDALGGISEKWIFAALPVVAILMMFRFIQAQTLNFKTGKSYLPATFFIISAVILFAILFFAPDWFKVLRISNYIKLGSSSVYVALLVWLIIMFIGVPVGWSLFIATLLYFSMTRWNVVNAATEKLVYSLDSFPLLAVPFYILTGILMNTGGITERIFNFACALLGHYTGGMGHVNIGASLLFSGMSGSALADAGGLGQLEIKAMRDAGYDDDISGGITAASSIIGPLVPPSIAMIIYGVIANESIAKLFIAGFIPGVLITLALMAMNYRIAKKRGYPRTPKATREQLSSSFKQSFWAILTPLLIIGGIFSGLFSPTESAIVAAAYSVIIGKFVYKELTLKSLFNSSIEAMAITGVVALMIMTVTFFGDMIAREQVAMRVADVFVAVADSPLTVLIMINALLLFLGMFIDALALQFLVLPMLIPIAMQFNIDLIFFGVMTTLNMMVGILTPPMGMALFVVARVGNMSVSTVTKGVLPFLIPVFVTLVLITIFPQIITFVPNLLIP
MEASURED_ENDPOINT: pKd
FYI, pKd means -log10 of a concentration in mol per litre.

Examples from the recorded data:
BINDER	MEASURED_ENDPOINT	MEASURED
VHHQM2 (VHH) VHH: QVQLVESGGGLVQPGESLRLSCAASGSTFSSYGMSWVRQAPRKGPEWVSSISASGTLTRYADFVKGRFTVSRDNAKNTLFLQMNSLKPEDTALYYCARGGAPSVVYNRHDWGQGTQVTVSS	pKd	8.01
VHHQM4 (VHH) VHH: QVQLVETGGGLVQPGGSLRLSCAASAFTYDNYGIGWFRQAPGKEREGVSCISSSGGTVNYADSVKGRFTISRDNAKNTVYLQMNSLKPEDTAVYYCAALKYGSSCRFLRAANFGSWGQGTRVTVSS	pKd	7.98
VHHQM5 (VHH) VHH: QVQLVESGGGLVQPGGSLRLSCATSRFTLNYYDIGWFRQAPGKEREGVSCITSSGGNTNYADSVKGRFTISRDNAKNTVYLQMNSLKPEDTAIYYCAAAKYGSAWPCSSMPLRDFGSWGQGTQVTVSS	pKd	8.97
VHHQM7 (VHH) VHH: QVQLVESGGGLVQPGGSLRLSCAASGFTLSYHAIGWFRQAPGKEREGVSFISSSGSSTNYADSVKGRFTISKDNAKNTVYLQMDSLKPEDTAVYYCARSAAYGSSWLNPSRYDYWGQGTQVTVSS	pKd	8.31
VHHQM9 (VHH) VHH: QLQLVESGGRSVQAGGSLRLSCAASGRAFTMAWFRQAPGKEREFVAARTWPVEYGYYADSVKDRFTISRDNAKNILYLQMTSLHPEDTAMYYCAASTANRDSVNVRFSDQYAYWGPGTQVTVSV	pKd	9.44

Please examine the following record next.
I have this binder here, VHHQM6 (VHH) VHH: QLQLVESGGGLVQAGGSLRLSCTASRVTLNYHDIGWFRQAPGKEREGVSYISSSGGSTKYADFVKGRFTISRDNAKNTVYLQMNSLKPEDTAVYYCARSAAYGSSWLNPSRYDYWGQGTQVTVSS , and I need its recorded pKd. 9.19
